Target: T1, human IL-33 (R&D Systems, #3625-IL-010/CF) (human) (UniProt O95760)
T1 sequence (looked up): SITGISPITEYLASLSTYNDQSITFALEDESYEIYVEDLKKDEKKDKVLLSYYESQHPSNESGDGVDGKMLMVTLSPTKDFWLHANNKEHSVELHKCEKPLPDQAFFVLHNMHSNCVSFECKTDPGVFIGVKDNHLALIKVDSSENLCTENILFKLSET
reportedProperty: IC50, IL-33-induced phospho-p38 in primary human basophils, 500 pM hIL-33 (M)
Respond numerically; units are M and should not be typed.

Below: 5 binders and their reported IC50, IL-33-induced phospho-p38 in primary human basophils, 500 pM hIL-33.
* H4H9666P (antibody, from another filing, IgG4, V domains shown) VH: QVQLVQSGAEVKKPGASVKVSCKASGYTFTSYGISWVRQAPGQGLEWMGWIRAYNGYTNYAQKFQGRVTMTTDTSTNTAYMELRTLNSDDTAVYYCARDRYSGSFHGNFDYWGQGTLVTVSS VL: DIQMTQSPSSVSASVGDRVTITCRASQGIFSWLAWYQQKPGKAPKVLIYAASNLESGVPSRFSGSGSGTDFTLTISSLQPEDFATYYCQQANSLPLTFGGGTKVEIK | 7.6e-06
* H4H9675P (antibody, from another filing, IgG4, V domains shown) VH: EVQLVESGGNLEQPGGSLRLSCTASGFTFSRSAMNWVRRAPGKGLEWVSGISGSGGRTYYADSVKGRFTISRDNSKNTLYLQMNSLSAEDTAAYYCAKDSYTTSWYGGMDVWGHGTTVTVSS VL: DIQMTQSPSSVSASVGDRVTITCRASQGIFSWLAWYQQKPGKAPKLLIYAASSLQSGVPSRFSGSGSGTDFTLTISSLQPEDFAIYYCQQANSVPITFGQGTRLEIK | 3.5e-13
* H4H9671P (antibody, from another filing, IgG4, V domains shown) VH: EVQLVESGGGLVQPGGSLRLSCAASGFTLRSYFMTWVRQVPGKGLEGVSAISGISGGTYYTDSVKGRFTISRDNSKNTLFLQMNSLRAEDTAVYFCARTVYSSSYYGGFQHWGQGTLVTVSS VL: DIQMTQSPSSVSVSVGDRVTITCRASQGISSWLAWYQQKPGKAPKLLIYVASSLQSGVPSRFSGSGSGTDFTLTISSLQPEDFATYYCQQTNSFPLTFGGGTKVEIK | 2.3e-12
* H4H9662P (antibody, from another filing, IgG4, V domains shown) VH: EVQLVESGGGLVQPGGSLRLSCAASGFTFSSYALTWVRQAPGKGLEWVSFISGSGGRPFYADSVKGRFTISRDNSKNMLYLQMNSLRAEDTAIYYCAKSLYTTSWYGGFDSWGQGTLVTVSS VL: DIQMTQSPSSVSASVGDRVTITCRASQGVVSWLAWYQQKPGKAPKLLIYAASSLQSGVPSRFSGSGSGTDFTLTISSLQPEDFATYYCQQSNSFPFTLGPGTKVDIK | 2.5e-09
* H4H9667P (antibody, from another filing, IgG4, V domains shown) VH: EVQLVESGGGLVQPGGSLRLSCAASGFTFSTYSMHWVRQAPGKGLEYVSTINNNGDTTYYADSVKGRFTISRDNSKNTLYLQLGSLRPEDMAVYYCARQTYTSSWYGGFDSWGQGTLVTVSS VL: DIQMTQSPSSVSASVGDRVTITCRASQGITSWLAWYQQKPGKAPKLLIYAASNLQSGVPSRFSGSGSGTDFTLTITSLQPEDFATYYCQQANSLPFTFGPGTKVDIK | 2e-12

Item under review: H4H9660P (antibody, from another filing, IgG4, V domains shown) VH: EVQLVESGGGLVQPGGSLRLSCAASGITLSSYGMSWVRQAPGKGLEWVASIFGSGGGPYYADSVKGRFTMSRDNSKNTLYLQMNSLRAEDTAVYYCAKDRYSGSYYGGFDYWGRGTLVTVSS VL: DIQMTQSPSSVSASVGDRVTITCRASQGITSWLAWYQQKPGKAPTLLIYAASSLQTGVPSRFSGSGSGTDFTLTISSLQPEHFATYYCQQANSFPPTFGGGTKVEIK . Reported IC50, IL-33-induced phospho-p38 in primary human basophils, 500 pM hIL-33?
4.8e-13
